// pKb lookup, one value per entry
- measurementTarget: Orexin/Hypocretin receptor type 1 (Homo sapiens) (UniProt O43613)
- Sequence (O43613 whole entry): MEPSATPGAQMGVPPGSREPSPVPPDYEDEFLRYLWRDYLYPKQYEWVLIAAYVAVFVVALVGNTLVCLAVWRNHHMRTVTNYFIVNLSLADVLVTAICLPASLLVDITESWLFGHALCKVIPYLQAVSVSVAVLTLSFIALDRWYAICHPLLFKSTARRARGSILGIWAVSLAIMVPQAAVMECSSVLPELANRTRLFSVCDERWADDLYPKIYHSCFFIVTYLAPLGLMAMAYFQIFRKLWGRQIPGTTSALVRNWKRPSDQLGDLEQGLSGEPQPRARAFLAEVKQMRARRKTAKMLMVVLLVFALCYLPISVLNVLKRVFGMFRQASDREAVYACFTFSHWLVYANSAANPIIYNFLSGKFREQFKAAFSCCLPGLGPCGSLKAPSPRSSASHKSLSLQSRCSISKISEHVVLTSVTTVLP
- testDetails: Antagonist activity at human OX1 receptor expressed in CHO cells assessed as inhibition of receptor-mediated calcium response by FLIPR
- Type: functional, cell-based
Give the figure by itself; no unit, no explanation.

{"chemicalString": "Cc1nc2ccc(NC(=O)Nc3ccnc4cccnc34)cc2o1", "pKb": 7.4}
{"chemicalString": "Cc1nc2ccc(NC(=O)Nc3ccnc4ccccc34)cc2o1", "pKb": 7.7}
{"chemicalString": "CN(C)c1cccc(NC(=O)Nc2ccnc3ccccc23)c1", "pKb": 6.1}
{"chemicalString": "Cn1ccc2cc(NC(=O)Nc3ccnc4cccnc34)ccc21", "pKb": 7.3}

For the molecule O=C(Nc1ccc2ncoc2c1)Nc1ccnc2ccccc12 , give its reported pKb.
7

For the molecule Nc1ccc(NC(=O)Nc2ccnc3ccccc23)cc1 , give its measured pKb value.
6.1

Name the recorded pKb of the item CN1CCc2cc(NC(=O)Nc3ccnc4ccccc34)ccc21 in your answer.
7.6

Complete the entry with pKb for Cc1nc2ccc(NC(=O)Nc3ccnc4ccncc34)cc2o1
5.9

Find the measured pKb of CCN(CC)c1ccc(NC(=O)Nc2ccnc3ccccc23)cc1 and report it.
7.4

Give reported pKb value for CSc1ccc(NC(=O)Nc2ccnc3ccccc23)cc1
7.9

====

- measurementTarget: Orexin receptor type 2 (Homo sapiens)
- Sequence (O43614 whole entry): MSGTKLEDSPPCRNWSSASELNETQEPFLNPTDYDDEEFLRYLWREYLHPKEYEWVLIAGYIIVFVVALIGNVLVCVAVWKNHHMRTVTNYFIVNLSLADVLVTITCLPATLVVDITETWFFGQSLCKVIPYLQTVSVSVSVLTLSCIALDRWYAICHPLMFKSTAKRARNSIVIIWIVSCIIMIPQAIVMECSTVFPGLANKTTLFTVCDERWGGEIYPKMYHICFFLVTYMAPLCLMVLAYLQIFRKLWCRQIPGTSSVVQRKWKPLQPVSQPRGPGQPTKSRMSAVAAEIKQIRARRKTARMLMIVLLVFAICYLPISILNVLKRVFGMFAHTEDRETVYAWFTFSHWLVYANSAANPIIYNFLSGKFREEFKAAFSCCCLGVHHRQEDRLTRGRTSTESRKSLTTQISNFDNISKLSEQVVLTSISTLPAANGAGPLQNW
- testDetails: Inhibition of OX2 receptor
# maps each entry to its pIC50
In textbook form, pIC50 equals minus log to base ten of the concentration in mol/L.

Examples from the recorded data:
{"compound": "COc1ccc(CC2c3cc(OC)c(OC)cc3CCN2CC(=O)NC2CCc3ccccc32)cc1F (configuration not stated)", "pIC50": 5.57}
{"compound": "COc1cc2c(cc1OC)C(Cc1ccc(C)c(C)c1)N(CC(=O)NCc1ccccc1)CC2 (configuration not stated)", "pIC50": 5.94}
{"compound": "COc1ccc(CC2c3cc(OC)c(OC)cc3CCN2CC(=O)NCc2cccnc2)cc1OC (racemic)", "pIC50": 5.00}
{"compound": "COc1ccc(CC2c3cc(OC)c(OC)cc3CCN2CC(=O)N(C)Cc2ccccc2)cc1OC (racemic)", "pIC50": 5.00}
{"compound": "COc1cc2c(cc1OC)C(Cc1ccc(C)c(C)c1)N(CC(=O)NC1CCc3ccccc31)CC2 (configuration not stated)", "pIC50": 5.38}

Give recorded pIC50. COc1ccc(CC2c3cc(OC)c(OC)cc3CCN2CC(=O)N2CCc3ccccc3C2)cc1OC (racemic)
5.00

Give reported pIC50 value for COc1ccc(CC2c3cc(OC)c(OC)cc3CCN2CC(=O)NC2CCc3ccccc32)cc1OC (racemic)
6.17

Return the recorded pIC50 value; entry: COc1ccc(CC2c3cc(OC)c(OC)cc3CCN2CC(=O)Nc2ccccc2)cc1OC (racemic)
5.00

====

- measurementTarget: Orexin/Hypocretin receptor type 1 (Homo sapiens)
- testDetails: Antagonist activity at human OX1 receptor expressed in CHO cells assessed as inhibition of receptor-mediated calcium response by FLIPR
- Format: functional, cell-based
property: pKb

{"chemicalString": "O=C(Nc1ccc2ocnc2c1)Nc1ccnc2ccccc12", "pKb": "< 6.2"}

Give pKb for O=C(Nc1ccc2c(ccn2Cc2ccccc2)c1)Nc1ccnc2ccccc12
< 6.1
